# ASSAYED_SYSTEM: Sodium channel protein type 10 subunit alpha (Homo sapiens)
# Sequence (Q9Y5Y9 whole entry, looked up): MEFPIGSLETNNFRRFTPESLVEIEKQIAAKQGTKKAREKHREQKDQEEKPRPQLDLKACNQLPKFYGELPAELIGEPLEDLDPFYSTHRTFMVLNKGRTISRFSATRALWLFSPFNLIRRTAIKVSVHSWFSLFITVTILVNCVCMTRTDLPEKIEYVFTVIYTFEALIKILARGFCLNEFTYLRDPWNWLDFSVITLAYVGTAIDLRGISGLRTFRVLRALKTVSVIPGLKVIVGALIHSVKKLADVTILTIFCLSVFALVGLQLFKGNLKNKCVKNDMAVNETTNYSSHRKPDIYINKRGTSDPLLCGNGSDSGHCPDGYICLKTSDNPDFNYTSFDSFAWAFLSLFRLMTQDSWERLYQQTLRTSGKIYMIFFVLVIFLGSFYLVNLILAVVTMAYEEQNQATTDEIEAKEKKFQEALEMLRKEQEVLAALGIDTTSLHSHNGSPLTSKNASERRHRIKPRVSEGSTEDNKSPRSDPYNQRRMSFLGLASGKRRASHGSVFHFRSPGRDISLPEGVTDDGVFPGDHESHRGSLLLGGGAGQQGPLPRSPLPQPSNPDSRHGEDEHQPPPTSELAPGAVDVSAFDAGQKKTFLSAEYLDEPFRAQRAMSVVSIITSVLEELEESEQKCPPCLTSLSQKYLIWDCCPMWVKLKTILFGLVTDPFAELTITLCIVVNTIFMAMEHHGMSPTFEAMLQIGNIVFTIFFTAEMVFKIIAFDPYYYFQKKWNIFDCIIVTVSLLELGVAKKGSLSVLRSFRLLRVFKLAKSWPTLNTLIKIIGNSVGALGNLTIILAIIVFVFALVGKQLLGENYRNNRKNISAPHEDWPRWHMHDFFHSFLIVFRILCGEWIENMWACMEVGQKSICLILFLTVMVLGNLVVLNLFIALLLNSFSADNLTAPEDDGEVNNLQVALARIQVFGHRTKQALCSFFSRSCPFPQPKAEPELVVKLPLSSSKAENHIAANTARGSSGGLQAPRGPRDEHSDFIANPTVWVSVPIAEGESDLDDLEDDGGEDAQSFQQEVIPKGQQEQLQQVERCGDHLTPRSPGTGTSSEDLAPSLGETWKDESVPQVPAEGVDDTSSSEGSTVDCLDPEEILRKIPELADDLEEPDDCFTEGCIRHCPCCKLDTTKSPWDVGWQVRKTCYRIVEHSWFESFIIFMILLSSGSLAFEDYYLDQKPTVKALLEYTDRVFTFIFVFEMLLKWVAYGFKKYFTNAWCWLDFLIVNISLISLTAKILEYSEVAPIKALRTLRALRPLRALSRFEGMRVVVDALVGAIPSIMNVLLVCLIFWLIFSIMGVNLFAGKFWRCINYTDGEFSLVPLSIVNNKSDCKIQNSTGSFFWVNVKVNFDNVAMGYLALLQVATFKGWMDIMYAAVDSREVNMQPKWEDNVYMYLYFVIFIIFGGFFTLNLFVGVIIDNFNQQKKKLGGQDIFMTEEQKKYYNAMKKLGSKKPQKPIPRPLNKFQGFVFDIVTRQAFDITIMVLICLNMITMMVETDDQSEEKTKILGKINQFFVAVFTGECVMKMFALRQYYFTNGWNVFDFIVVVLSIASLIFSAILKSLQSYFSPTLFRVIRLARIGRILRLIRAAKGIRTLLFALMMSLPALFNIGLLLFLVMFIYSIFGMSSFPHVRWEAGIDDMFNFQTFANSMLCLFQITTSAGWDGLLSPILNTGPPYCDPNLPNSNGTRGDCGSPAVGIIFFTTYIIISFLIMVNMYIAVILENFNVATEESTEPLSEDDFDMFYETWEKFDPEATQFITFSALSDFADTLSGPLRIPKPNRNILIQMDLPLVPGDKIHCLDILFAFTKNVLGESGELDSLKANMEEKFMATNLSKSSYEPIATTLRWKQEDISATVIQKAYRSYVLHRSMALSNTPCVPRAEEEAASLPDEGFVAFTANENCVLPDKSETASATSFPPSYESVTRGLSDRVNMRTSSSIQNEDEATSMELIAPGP
# TEST_DETAILS: Inhibition of Nav1.8 (unknown origin) at 10 uM by Ionflux high-throughput automated patch method
Active and inactive are the calls of the source. No cut-off for these calls is given here.
Classes to choose from: active, inactive

# input Outcome logged for CS(=O)(=O)c1cccc(NC(=O)c2cc(C(F)(F)F)cnc2Oc2c(F)cccc2F)c1 in this assay:
# output active

# input Could you kindly confirm the outcome this assay logged for Cc1cc(F)ccc1Oc1ncc(C(F)(F)F)cc1C(=O)Nc1cccc(S(C)(=O)=O)c1 ?
# output active

# input Tell me the recorded outcome of this test for COc1cc(F)ccc1Oc1cc(C(F)(F)F)ncc1C(=O)Nc1cccc(S(C)(=O)=O)c1 .
# output active

# input Give the logged outcome of this assay for the following molecule: COc1cc(F)ccc1Oc1ncccc1C(=O)Nc1cccc(S(C)(=O)=O)c1
# output inactive

# input Hi, sorry to bother you, what did the test record for COCCCNC(=O)c1cc(C(F)(F)F)cnc1Oc1ccc(F)cc1OC ?
# output inactive

# input Outcome logged for COc1cc(F)ccc1Oc1ncc(C(F)(F)F)cc1C(=O)NCc1cccnc1N1CCOCC1 in this assay:
# output inactive

# input # outcome recorded in this test, key = CS(=O)(=O)c1cccc(NC(=O)c2cc(C(F)(F)F)cnc2Oc2cccnc2)c1
# output active

# input Fill in: this test's call for COc1cc(F)ccc1Oc1ccncc1C(=O)Nc1cccc(S(C)(=O)=O)c1 is ___
# output inactive

# input Outcome? COc1cc(F)ccc1Oc1ncc(C(F)(F)F)cc1C(=O)Nc1ccncc1
# output active

# input Record lookup: outcome of this test for CS(=O)(=O)c1cccc(NC(=O)c2cc(C(F)(F)F)cnc2Oc2cc(F)cc(F)c2)c1 ?
# output active
